Test: qHTS assay to identify small molecule antagonists of the thyroid receptor (TR) signaling pathway (AID 743065); also: nearly all actives have a fitted effect of over 55% in size; also: potency is read from the fitted curve at half-maximal effect
Conditions: GH3.TRE-Luc, T3-stimulated luciferase inhibition, 23.5 h; series mostly up to 70.3 µM
Text: U.S. Tox21 Program National Center for Advancing Translational Sciences [NCATS] NIH Chemical Genomics Center [NCGC] U.S. Environmental Protection Agency [EPA] National Institutes of Environmental Health Sciences [NIEHS] National Toxicology Program [NTP] U.S. Food and Drug Administration [FDA] Tox21 Assay Overview: Thyroid receptor (TR), a nuclear hormone receptor, plays an important role in development, proliferation, differentiation, metabolism, brain function, and cardiovascular system. […]
Records with an inconclusive call do not appear. The source made the active and inactive calls. Calls follow the shape of the dose curve; as a rule, active = well fitted inhibition curve with a large enough effect in the repeat runs; inconclusive = weak or mixed curves; inactive = no such curve, though single readings can be large or run the other way.
Property name: Potency

For orientation, consider the following solved cases.
Compound	Reported measurement
COC(=O)C1=C(C)NC(C)=C(C(=O)OC(C)(C)CN(C)CCC(c2ccccc2)c2ccccc2)C1c1cccc([N+](=O)[O-])c1 (stereo not given)	6.68 µM (active)
CC[C@H]1OC(=O)[C@H](C)[C@@H](O[C@H]2C[C@@](C)(OC)[C@@H](O)[C@H](C)O2)[C@H](C)[C@@H](O[C@@H]2O[C@H](C)C[C@H](N(C)C)[C@H]2O)[C@](C)(O)C[C@@H](C)C(=O)[C@H](C)[C@@H](O)[C@]1(C)O	inactive
O=C1OC[C@H](Cc2cccc(O)c2)[C@H]1Cc1cccc(O)c1	inactive
CC(=O)c1ccc[nH]1	inactive
COc1ccc(CCN(C)CCCN2CCc3cc(OC)c(OC)cc3CC2=O)cc1OC	inactive
c1ccc2sc(SSc3nc4ccccc4s3)nc2c1	inactive
COc1cc(NCc2ccc3nc(N)nc(N)c3c2C)cc(OC)c1OC	0.668 µM (active)
COC(=O)CC(C(C)=O)C(=O)OC (stereo not given)	inactive
O=CNNC=O	inactive

Specify Potency for CCN(CC)CCNC(=O)c1cc(Cl)c(N)cc1OC and stop.
inactive

----------
experiment: qHTS assay to identify small molecule antagonists of the estrogen related receptor signaling pathway with the pleiotropic PPARgamma coactivator (PGC) from Tox21 10K library (AID 1224841); conditions: PGC/ERR reporter cell line, ONE-Glo luciferase, 18 h; series mostly up to 92.4 µM; also: actives are mostly falling curves and most rising ones were filed inactive; nearly all actives have a fitted effect of over 50% in size
Results filed as inconclusive are left out. Active and inactive are the calls of the source. The rule behind the calls is not given here.
Classes to choose from: active, inactive

Example cases with answers are listed next.
Compound	Category
O=C(O)CCS	inactive
CC(C)CC(O)CC(C)C	inactive

Outcome logged for CC[C@H]1OC(=O)[C@H](C)[C@@H](O[C@H]2C[C@@](C)(OC)[C@@H](O)[C@H](C)O2)[C@H](C)[C@@H](O[C@@H]2O[C@H](C)C[C@H](N(C)C)[C@H]2O)[C@](C)(O)C[C@@H](C)/C(=N\OCOCCOC)[C@H](C)[C@@H](O)[C@]1(C)O in this assay:
inactive

Look up the recorded call for CC(C)Cc1ccc(CC(=O)O)cc1 in this test.
inactive

For CCOC(=O)c1ccc(NC(=O)CN2CCCCC2)cc1 , what call appears in the results of this test?
inactive

What is the recorded call for this compound in the test? CC1CCc2nccnc21 (centres undefined)
inactive

Look up the recorded call for O[C@@H](CNC[C@H](O)[C@H]1CCc2cc(F)ccc2O1)[C@@H]1CCc2cc(F)ccc2O1 in this test.
active

----------
target: Voltage-gated inwardly rectifying potassium channel KCNH2 (Homo sapiens) (UniProt Q12809); assay: Human Ether-a-go-go-Related Gene (hERG) channel small molecule antagonists: fluorescence cell-based qHTS assay (AID 1671200); settings: hERG-U2OS cells, FluxOR thallium flux fluorescence; series mostly up to 76.8 µM;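 also: hERG-expressing U2OS cells given a thallium stimulus after FluxOR II dye loading; nearly all actives have a fitted effect of over 50% in size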
Sequence (Q12809 whole entry, looked up): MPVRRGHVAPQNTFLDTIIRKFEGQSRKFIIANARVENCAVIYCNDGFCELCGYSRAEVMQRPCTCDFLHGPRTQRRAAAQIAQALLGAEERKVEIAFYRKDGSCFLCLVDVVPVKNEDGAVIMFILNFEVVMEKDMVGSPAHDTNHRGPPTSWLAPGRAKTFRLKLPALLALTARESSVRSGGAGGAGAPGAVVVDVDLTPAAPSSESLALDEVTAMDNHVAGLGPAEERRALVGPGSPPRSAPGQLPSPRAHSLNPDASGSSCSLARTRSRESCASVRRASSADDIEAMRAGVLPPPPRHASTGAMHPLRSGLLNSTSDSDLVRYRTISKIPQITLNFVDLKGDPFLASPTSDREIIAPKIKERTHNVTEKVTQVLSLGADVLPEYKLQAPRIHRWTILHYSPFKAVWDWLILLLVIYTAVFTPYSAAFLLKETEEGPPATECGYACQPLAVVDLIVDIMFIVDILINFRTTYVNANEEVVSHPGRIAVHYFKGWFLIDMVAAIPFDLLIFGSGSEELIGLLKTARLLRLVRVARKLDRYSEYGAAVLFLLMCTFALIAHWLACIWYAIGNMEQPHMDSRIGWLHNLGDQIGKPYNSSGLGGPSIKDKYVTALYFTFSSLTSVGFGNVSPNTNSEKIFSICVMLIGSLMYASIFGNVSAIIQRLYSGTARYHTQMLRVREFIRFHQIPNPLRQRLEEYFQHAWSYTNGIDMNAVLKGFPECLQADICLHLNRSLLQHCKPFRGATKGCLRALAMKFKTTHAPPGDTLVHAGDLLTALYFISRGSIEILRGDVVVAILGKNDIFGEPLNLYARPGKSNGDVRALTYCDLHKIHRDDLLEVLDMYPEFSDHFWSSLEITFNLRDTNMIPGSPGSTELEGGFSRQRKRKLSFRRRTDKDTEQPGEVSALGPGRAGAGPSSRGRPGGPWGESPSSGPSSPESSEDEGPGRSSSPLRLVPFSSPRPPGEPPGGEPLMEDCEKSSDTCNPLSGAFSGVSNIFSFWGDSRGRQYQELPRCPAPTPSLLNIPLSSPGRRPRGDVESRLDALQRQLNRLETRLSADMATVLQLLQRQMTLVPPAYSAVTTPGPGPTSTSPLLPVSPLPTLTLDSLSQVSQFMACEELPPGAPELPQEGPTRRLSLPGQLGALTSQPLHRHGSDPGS
Inconclusive results are not listed. Activity calls are given as the source filed them. The call rests on the fitted dose curve; in most records, active means well fitted inhibition curve with a large enough effect in the repeat runs; inconclusive means weak or mixed curves; inactive means flat fitted curve, though single readings scatter.
Answer with one of the outcomes given here: 1.0 = active, 0.0 = inactive

Worked examples follow.
Molecule	Category
CCCCCCOC(=O)CCCCC	0.0
COc1ccc(-c2cc(=S)ss2)cc1	0.0
Oc1cccc2[nH]ccc12	0.0
C=Cc1ccc(OC(C)=O)cc1	0.0

Would you kindly look at the next entry?
// param item: Cc1ccc(N(CCO)CCO)cc1 ; yields the recorded call
0.0

----------
assay: qHTS assay for identifying genotoxic compounds that show differential cytotoxicity against isogenic chicken DT40 cell lines with known DNA damage response pathways - Rad54/Ku70 mutant cell line (AID 743015); details: DT40 Rad54/Ku70 mutant viability, CellTiter-Glo, 40 h; series mostly up to 66.8 µM; also: nearly all actives have a fitted effect of over 60% in size; also: potency is read from the fitted curve at half-maximal effect
Records with an inconclusive call do not appear. The source made the active and inactive calls. Calls come from the whole dose curve; as a rule, active = well fitted cell-killing curve with a large enough effect in the repeat runs; inconclusive = weak or mixed curves; inactive = no such curve, though single readings can be large or run the other way.
Property name: Potency

// solved cases for Potency follow
>>> df
                                   molecule  property_name  reported_measurement
0                               SCCc1cnccn1        Potency              inactive
1  CCN(Cc1cccc(S(=O)(=O)O)c1)c1ccc(C(=C2C=CC(=[N+](CC)Cc3cccc(S(=O)(=O)O)c3)C=C2)c2ccccc2S(=O)(=O)[O-])cc1        Potency      15.4 µM (active)
2                 O=S(=O)(Cl)c1c(Cl)cccc1Cl        Potency              inactive
3                  COc1cc(OC)c2ccc(=O)oc2c1        Potency      68.6 µM (active)
4                         Cc1ccc2c(c1)CCCN2        Potency              inactive

Read the entry C[C@H](CS)C(=O)N1CCC[C@H]1C(=O)O and write its reported Potency.
inactive

----------
target: Cytochrome P450 2C19 (Homo sapiens); assay: Cytochrome P450 Family 2 Subfamily C Member 19 (CYP2C19) small molecule antagonists: luciferase reporter qHTS assay (AID 1671197); conditions: P450-Glo CYP2C19 enzyme, luciferin luminescence, 1 h; series mostly up to 115 µM; also: nearly all actives have a fitted effect of over 65% in size
Inconclusive results are not listed. Activity calls are given as the source filed them. Calls come from the whole dose curve; as a rule, active = well fitted inhibition curve with a large enough effect in the repeat runs; inconclusive = weak or mixed curves; inactive = no such curve, though single readings can be large or run the other way.
Parameter call: string, one of active, inactive

A selection of reference data follows.
Molecule	Assayed system	Category
C[C@@H]1C[C@H]2[C@@H]3CCC4=CC(=O)C=C[C@]4(C)[C@@]3(F)[C@@H](O)C[C@]2(C)[C@@]1(O)C(=O)COP(=O)(O)O	Cytochrome P450 2C19 (Homo sapiens)	inactive
COC(OC)OC	Cytochrome P450 2C19 (Homo sapiens)	inactive
CCCCCCCCCCCCCCCCCC(=O)OCC(CC)CCCC (stereo not given)	Cytochrome P450 2C19 (Homo sapiens)	inactive
O=C(Oc1ccccc1)c1ccc2ccccc2c1O	Cytochrome P450 2C19 (Homo sapiens)	active
CCN(CC)c1cccc(O)c1	Cytochrome P450 2C19 (Homo sapiens)	active
CC(C)COC(=O)COc1cc(Cl)c(Cl)cc1Cl	Cytochrome P450 2C19 (Homo sapiens)	active
O=C(O)CCS	Cytochrome P450 2C19 (Homo sapiens)	inactive
CCCCCCC(CO)CCCC (stereo not given)	Cytochrome P450 2C19 (Homo sapiens)	inactive

Short answer needed: outcome of this test for NC(=O)c1ccccc1[N+](=O)[O-] ?
inactive

Please share the test call associated with CC1CCc2nccnc21 (stereo not given) .
inactive

// param item: CN1C(CSCC(F)(F)F)Nc2cc(Cl)c(S(N)(=O)=O)cc2S1(=O)=O (stereo not given) ; yields the recorded call
inactive

Assay outcome for CC12CC3CC(C)(C1)CC(N)(C3)C2 : what was it?
inactive

Hey, what did the test say about Cc1ccccc1S(N)(=O)=O ?
inactive

----------
assay: qHTS assay to identify small molecule agonists of the retinoic acid receptor (RAR) signaling pathway (AID 1159553); settings: C3RL4 RARE luciferase reporter, agonist, 6 h; series mostly up to 73.3 µM
Records with an inconclusive call do not appear. Activity calls are given as the source filed them. The call rests on the fitted dose curve; in most records, active means well fitted activation curve with a large enough effect in the repeat runs; inconclusive means weak or mixed curves, or effect the other way; inactive means no such curve, though single readings can be large or run the other way.
Pick one: active, inactive

Some solved entries appear below for comparison.
>>> df
                                   compound  category
0       Nc1ccn([C@H]2CS[C@@H](CO)O2)c(=O)n1  inactive
1               CC12CC3CC(C)(C1)CC(N)(C3)C2  inactive
2  CC(C)(C)CCCCCCOC(=O)c1ccccc1C(=O)OCCCCCCC(C)(C)C  inactive

Per the assay record, what outcome was assigned to BrC(Br)C(Br)Br ?
inactive

Please share the test call associated with O=C1[C@@H]2[C@H]3CC[C@H](C3)[C@@H]2C(=O)N1CCCCN1CCN(c2ncccn2)CC1 .
inactive

----------
test: qHTS assay to identify small molecule antagonists of the estrogen related receptor signaling pathway with the pleiotropic PPARgamma coactivator (PGC) from Tox21 10K library - cell viability counter screen (AID 1224840); conditions: PGC/ERR reporter cells viability, CellTiter-Fluor, 17.5 h; series mostly up to 92.4 µM; also: nearly all actives have a fitted effect of over 40% in size
Records with an inconclusive call do not appear. Active and inactive are the calls of the source. Calls come from the whole dose curve; as a rule, active = well fitted cell-killing curve with a large enough effect in the repeat runs (not every such curve was filed as active); inconclusive = weak or mixed curves, or effect the other way; inactive = no such curve, though single readings can be large or run the other way.
Would you mind answering with one of these outcomes? active, inactive

In [3]: df
Out[3]:
                                   compound  category
0  O=C(CCS)OCC(COC(=O)CCS)(COC(=O)CCS)COC(=O)CCS  inactive
1          O=C(O)CCC(=O)c1ccc(-c2ccccc2)cc1  inactive
2  CC(C)C1CCC(C(=O)N[C@H](Cc2ccccc2)C(=O)O)CC1 (stereo partly specified)  inactive
3  CCN(Cc1cccc(S(=O)(=O)O)c1)c1ccc(C(=C2C=CC(=[N+](CC)Cc3cccc(S(=O)(=O)O)c3)C=C2)c2ccccc2S(=O)(=O)[O-])cc1    active
4  CC(CN(CCN(CC(C)OCCO)CC(C)OCCO)CC(C)OCCO)OCCO (stereo unspecified)  inactive

Write down the call the test reported for this compound. Item: O=NN(CCCl)C(=O)NCCCl
inactive

Outcome? O=C(O)CCCc1c[nH]c2ccccc12
inactive

Could you check what this test reported for Nc1ccc(S(=O)(=O)NCc2ccccc2)cc1 ?
inactive

Write down the call the test reported for this compound. Item: C[C@H](CS)C(=O)N1CCC[C@H]1C(=O)O
inactive

Look up the recorded call for O=C1OC(=O)c2c(Br)c(Br)c(Br)c(Br)c21 in this test.
inactive

// param item: Nc1nc2ccc(OC(F)(F)F)cc2s1 ; yields the recorded call
inactive
